- TARGET: PE-labeled human PD-L1-Ig binding to Jurkat cell line over-expressing human PD-1 (Jurkat-PD-1) (Homo sapiens)
- Construct: expressed in transfected cells; host or cells: Jurkat
- METHOD SUMMARY: Jurkat-PD-1 Cell Binding High-Content Screening Assay (CBA): Method 1
- TEST CONDITIONS: Jurkat-hPD-1 cells, PE-labeled PD-L1-Ig 20 nM final; read-out: Jurkat HPDL1 PD1 IC50 (uM) (Method 1)
Bridge positions count the residues as written; N and C are the ends. Square brackets hold non-standard residues; d marks the D form. Peptide text beside a SMILES is read from it. Bip = N[C@@H](Cc1ccc(-c2ccccc2)cc1)C(=O)O; NMeA = CN[C@@H](C)C(=O)O; Orn = NCCC[C@H](N)C(=O)O
QUANTITY MEASURED: IC50 (µM)
Just the number please, in µM, no unit attached.

Input: Any idea what IC50 was measured for CC(C)C[C@@H]1NC(=O)[C@H](CCCN)NC(=O)[C@@H](CC(C)C)NC(=O)[C@H](C)N(C)C(=O)[C@H](CCCNC(=N)N)NC(=O)[C@H](Cc2ccc(-c3ccccc3)cc2)NC(=O)[C@H](C(C)C)NC(=O)[C@H](Cc2c[nH]c3ccccc23)NC(=O)[C@H](CC(=O)O)NC(=O)[C@H](Cc2ccc(O)cc2)NC(=O)[C@H](Cc2ccccc2)NC(=O)CSC[C@@H](C(=O)N[C@@H](C)C(N)=O)NC(=O)[C@H]([C@@H](C)O)NC(=O)[C@H](C(C)C)NC1=O [Compound 1119] ({CH2CO}-FYDWV[Bip]R[NMeA][dL][Orn]LVTCA-NH2; thioether N-14) ?
Output: 0.03

====

- TARGET: PE-labeled human PD-L1-Ig binding to Jurkat cell line over-expressing human PD-1 (Jurkat-PD-1) (Homo sapiens)
- Construct: expressed in transfected cells; host or cells: Jurkat
- METHOD SUMMARY: Jurkat-PD-1 Cell Binding High-Content Screening Assay (CBA): Method 1
- TEST CONDITIONS: Jurkat HPDL1 PD1 IC50 (uM) (Method 1), Jurkat-hPD-1 cells, PE-labeled PD-L1-Ig 20 nM final
Bridge positions count the residues as written; N and C are the ends. Square brackets hold non-standard residues; d marks the D form. Peptide text beside a SMILES is read from it. Bip = N[C@@H](Cc1ccc(-c2ccccc2)cc1)C(=O)O; 3Pal = N[C@@H](Cc1cccnc1)C(=O)O; 4Pal = N[C@@H](Cc1ccncc1)C(=O)O; NMeA = CN[C@@H](C)C(=O)O; Dab = NCC[C@H](N)C(=O)O; Dap = NC[C@H](N)C(=O)O
QUANTITY MEASURED: IC50 (µM)
Just the number please, in µM, no unit attached.

Input: Any idea what IC50 was measured for CC(C)C[C@@H]1NC(=O)[C@H](CCN)NC(=O)[C@@H](CC(C)C)NC(=O)[C@H](C)N(C)C(=O)[C@H](C(C)C)NC(=O)[C@H](Cc2ccc(-c3ccccc3)cc2)NC(=O)[C@H](C(C)C)NC(=O)[C@H](Cc2c[nH]c3ccccc23)NC(=O)[C@H](CC(=O)O)NC(=O)[C@H](Cc2ccncc2)NC(=O)[C@H](CN)NC(=O)CSC[C@@H](C(=O)N[C@@H](C)C(N)=O)NC(=O)[C@H]([C@@H](C)O)NC(=O)[C@H](C(C)C)NC1=O [Compound 1542] ({CH2CO}-[Dap][4Pal]DWV[Bip]V[NMeA][dL][Dab]LVTCA-NH2; thioether N-14) ?
Output: 0.04

Input: Query CC(C)C[C@@H]1NC(=O)[C@H](CCN)NC(=O)[C@@H](CC(C)C)NC(=O)[C@H](C)N(C)C(=O)[C@H](CCCNC(=N)N)NC(=O)[C@H](Cc2ccc(-c3ccccc3)cc2)NC(=O)[C@H](C(C)C)NC(=O)[C@H](Cc2c[nH]c3ccccc23)NC(=O)[C@H](CC(=O)O)NC(=O)[C@H](Cc2ccc(O)cc2)NC(=O)[C@H](Cc2cccnc2)NC(=O)CSC[C@@H](C(=O)N[C@@H](C)C(N)=O)NC(=O)[C@H](CO)NC(=O)[C@H](C(C)C)NC1=O [Compound 1034] ({CH2CO}-[3Pal]YDWV[Bip]R[NMeA][dL][Dab]LVSCA-NH2; thioether N-14) next
Output: 0.05

====

- TARGET: PE-labeled human PD-L1-Ig binding to Jurkat cell line over-expressing human PD-1 (Jurkat-PD-1) (Homo sapiens, UniProt Q15116)
- Construct: expressed in transfected cells; host or cells: Jurkat
- Sequence (Q15116 25-288): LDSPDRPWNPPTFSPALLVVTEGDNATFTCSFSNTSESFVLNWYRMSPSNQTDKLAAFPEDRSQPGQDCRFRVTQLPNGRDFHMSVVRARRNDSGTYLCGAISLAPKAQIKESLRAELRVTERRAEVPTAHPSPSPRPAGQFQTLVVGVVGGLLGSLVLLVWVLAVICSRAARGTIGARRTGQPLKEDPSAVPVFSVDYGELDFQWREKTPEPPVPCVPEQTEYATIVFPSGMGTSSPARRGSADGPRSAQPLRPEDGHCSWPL
- METHOD SUMMARY: Jurkat-PD-1 Cell Binding High-Content Screening Assay (CBA): Method 1
- TEST CONDITIONS: Jurkat-hPD-1 cells, PE-labeled PD-L1-Ig 20 nM final; read-out: Jurkat HPDL1 PD1 IC50 (uM) (Method 1)
Bridge positions count the residues as written; N and C are the ends. Square brackets hold non-standard residues; d marks the D form. Peptide text beside a SMILES is read from it. Phe(2,4-Cl2) = N[C@@H](Cc1ccc(Cl)cc1Cl)C(=O)O; Bip = N[C@@H](Cc1ccc(-c2ccccc2)cc1)C(=O)O; Bta = N[C@@H](Cc1csc2ccccc12)C(=O)O; NMeA = CN[C@@H](C)C(=O)O; Dab = NCC[C@H](N)C(=O)O; Dap = NC[C@H](N)C(=O)O
Can you tell me log10 IC50 for the items I'm about to list?
The base-10 logarithm of IC50, taken with IC50 in µM, is what appears here.

Input: Any idea what log10 IC50 was measured for CC(C)C[C@@H]1NC(=O)[C@H](CCN)NC(=O)[C@@H](CC(C)C)NC(=O)[C@H](C)N(C)C(=O)[C@H](CCCNC(=N)N)NC(=O)[C@H](Cc2ccc(-c3ccccc3)cc2)NC(=O)[C@H](C(C)C)NC(=O)[C@H](Cc2c[nH]c3ccccc23)NC(=O)[C@H](CC(=O)O)NC(=O)[C@H](Cc2cnc[nH]2)NC(=O)[C@H](CC(N)=O)NC(=O)CSC[C@@H](C(=O)N[C@@H](C)C(N)=O)NC(=O)[C@H]([C@@H](C)O)NC(=O)[C@H](C(C)C)NC1=O [Compound 1137] ({CH2CO}-NHDWV[Bip]R[NMeA][dL][Dab]LVTCA-NH2; thioether N-14) ?
Output: -0.57

Input: Query CC(C)C[C@@H]1NC(=O)[C@H](CCN)NC(=O)[C@@H](CC(C)C)NC(=O)[C@H](C)N(C)C(=O)[C@H](CCCNC(=N)N)NC(=O)[C@H](Cc2ccc(-c3ccccc3)cc2)NC(=O)[C@H](C(C)C)NC(=O)[C@H](Cc2c[nH]c3ccccc23)NC(=O)[C@H](CC(=O)O)NC(=O)[C@H](Cc2ccc(O)cc2)NC(=O)[C@H](CN)NC(=O)CSC[C@@H](C(=O)N[C@@H](C)C(N)=O)NC(=O)[C@H]([C@@H](C)O)NC(=O)[C@H](C(C)C)NC1=O [Compound 1350] ({CH2CO}-[Dap]YDWV[Bip]R[NMeA][dL][Dab]LVTCA-NH2; thioether N-14) next
Output: -1.52

Input: Query CC(C)C[C@@H]1NC(=O)[C@H](Cc2c[nH]c3ccccc23)NC(=O)[C@H](CC(=O)O)NC(=O)[C@H](Cc2ccc(O)cc2)NC(=O)[C@H](Cc2ccccc2)NC(=O)CSC[C@@H](C(=O)N[C@@H](C)C(N)=O)NC(=O)[C@H](CO)NC(=O)[C@H](CCN)NC(=O)[C@H](CC(C)C)NC(=O)[C@H](CC(N)=O)NC(=O)[C@@H](C)NC(=O)[C@H](C)N(C)C(=O)[C@H](C(C)C)NC(=O)[C@H](Cc2ccc(-c3ccccc3)cc2)NC1=O [Compound 1531] ({CH2CO}-FYDWL[Bip]V[NMeA][dA]NL[Dab]SCA-NH2; thioether N-14) next
Output: -0.96

Input: Query CC(C)C[C@@H]1NC(=O)[C@H](Cc2c[nH]c3ccccc23)NC(=O)[C@H](CC(=O)O)NC(=O)[C@H](Cc2ccc(Cl)cc2Cl)NC(=O)[C@H](Cc2ccccc2)NC(=O)CSC[C@@H](C(=O)N[C@@H](C)C(N)=O)NC(=O)[C@H](CO)NC(=O)[C@H](C(C)C)NC(=O)[C@H](CC(C)C)NC(=O)[C@H](CC(N)=O)NC(=O)[C@@H](C)NC(=O)[C@H](C)N(C)C(=O)[C@H](C(C)C)NC(=O)[C@H](Cc2ccc(-c3ccccc3)cc2)NC1=O [Compound 1810] ({CH2CO}-F[Phe(2,4-Cl2)]DWL[Bip]V[NMeA][dA]NLVSCA-NH2; thioether N-14) next
Output: -0.55

Input: Query CC(C)C[C@@H]1NC(=O)[C@H](Cc2c[nH]c3ccccc23)NC(=O)[C@H](CC(=O)O)NC(=O)[C@H](Cc2ccc(O)cc2)NC(=O)[C@H](Cc2ccccc2)NC(=O)CSC[C@@H](C(=O)N[C@@H](C)C(N)=O)NC(=O)[C@H](CO)NC(=O)[C@H](C(C)C)NC(=O)[C@H](CC(C)C)NC(=O)[C@H](CC(N)=O)NC(=O)[C@@H](Cc2ccccc2)NC(=O)[C@H](C)N(C)C(=O)[C@H](C(C)C)NC(=O)[C@H](Cc2ccc(-c3ccccc3)cc2)NC1=O [Compound 1783] ({CH2CO}-FYDWL[Bip]V[NMeA][dF]NLVSCA-NH2; thioether N-14) next
Output: -1.05

Input: Query CC(C)C[C@@H]1NC(=O)[C@H](CCCNC(=N)N)NC(=O)[C@H](Cc2csc3ccccc23)NC(=O)[C@H](C)N(C)C(=O)[C@H](CCCNC(=N)N)NC(=O)[C@H](Cc2ccc(-c3ccccc3)cc2)NC(=O)[C@H](C(C)C)NC(=O)[C@H](Cc2c[nH]c3ccccc23)NC(=O)[C@H](CC(=O)O)NC(=O)[C@H](Cc2ccc(O)cc2)NC(=O)[C@H](Cc2cnc[nH]2)NC(=O)CSC[C@@H](C(=O)NCC(N)=O)NC(=O)[C@H](CO)NC(=O)[C@H](C(C)C)NC1=O [Compound 1025] ({CH2CO}-HYDWV[Bip]R[NMeA][Bta]RLVSCG-NH2; thioether N-14) next
Output: -0.92

Input: Query CC(C)C[C@@H]1NC(=O)[C@H](CCCNC(=N)N)NC(=O)[C@@H](CC(C)C)NC(=O)[C@H](C)N(C)C(=O)[C@H](C(C)C)NC(=O)[C@H](Cc2ccc(-c3ccccc3)cc2)NC(=O)[C@H](C(C)C)NC(=O)[C@H](Cc2c[nH]c3ccccc23)NC(=O)[C@H](CC(=O)O)NC(=O)[C@H](Cc2ccc(O)cc2)NC(=O)[C@H](Cc2ccccc2)NC(=O)CSC[C@@H](C(=O)N[C@@H](C)C(N)=O)NC(=O)[C@H](CO)NC(=O)[C@H](C(C)C)NC1=O [Compound 1770] ({CH2CO}-FYDWV[Bip]V[NMeA][dL]RLVSCA-NH2; thioether N-14) next
Output: -1.40

Input: Query Cc1cccc2c(CC3NC(=O)[C@H](CC(=O)O)NC(=O)[C@H](Cc4ccc(O)cc4)NC(=O)[C@H](Cc4ccccc4)NC(=O)CSC[C@@H](C(=O)N[C@@H](C)C(N)=O)NC(=O)[C@H]([C@@H](C)O)NC(=O)[C@H](C(C)C)NC(=O)[C@H](CC(C)C)NC(=O)[C@H](CCCNC(=N)N)NC(=O)[C@@H](CC(C)C)NC(=O)[C@H](C)N(C)C(=O)[C@H](CCCNC(=N)N)NC(=O)[C@H](Cc4ccc(-c5ccccc5)cc4)NC(=O)[C@H](C(C)C)NC3=O)n[nH]c12 (mixture of isomers) next
Output: -0.06

These measurements were taken from patent US20240409585A1.
